Test: Pharmacokinetic study in dog
Type: in vivo, Beagle dogs
Conditions: beagle, plasma, PO, 10 mg/Kg
experimental readout: AUC(0-t) (ng·h/mL)
Reply with just the number (in ng·h/mL).

Qu. Entry CP1(=O)CCN(CC#Cc2ccc3ncnc(Nc4ccc(OCc5cccc(F)c5)c(Cl)c4)c3c2)CC1 [Example 4] : reported AUC(0-t) = ?
Ans. 7640

###

Test: Pharmacokinetic study in mouse
Assay type: in vivo
Details: plasma, PO, 10 mg/Kg
Experimental: The dog PK protocol is shown here, while PK study protocol of mouse and rat are similar to dog. Beagle dogs of this study were 6-8 month old and weighed 8 to 10 kg. Example 4 was dissolved in 2% DMA and 98% (40% HP-β-CD in deionized water) to yield concentration at 2 mg/mL for both intravenous (IV, a bolus injection via the lateral tail vein) and oral (PO, via oral gavage) administrations. […]
experimental readout: AUC(0-t) (ng·h/mL)
Reply with just the number (in ng·h/mL).

Qu. Entry CP1(=O)CCN(CC#Cc2ccc3ncnc(Nc4ccc(OCc5cccc(F)c5)c(Cl)c4)c3c2)CC1 [Example 4] : reported AUC(0-t) = ?
Ans. 8830
